- Tested on: MCF7
- testSummary: Induction of apoptosis in human MCF7 cells assessed as early apoptotic cells at 1 uM after 72 hrs by annexin V-FITC/propidium iodide staining-based flow cytometric method (reference value: 9%)
- Assay type: functional
For each record, check the reported Activity: if it is below 10% write true, else write false.

Dear colleague, could you confirm whether Activity of `COc1ccc(CCN2CCC(Nc3nc4nc5ccc(C)cc5nc4c(=O)[nH]3)CC2)cc1` falls below 10%? Thanks. false

Now give it for CC(Nc1nc2nc3ccccc3nc2c(=O)[nH]1)c1ccccc1 (stereo not given) too. false

Now give it for `COc1ccc2nc3nc(NCc4ccc(CN(C)C)cc4)[nH]c(=O)c3nc2c1` too. false

Now give it for `O=c1[nH]c(NCc2ccc(CN3CCOCC3)cc2)nc2nc3ccc(Cl)cc3nc12` too. false

Now give it for `COc1ccc2nc3nc(NCc4ccc(CN5CCN(C)CC5)cc4)[nH]c(=O)c3nc2c1` too. true
